Molecular target: MeCP2-TBL1 interaction (MeCP2-SmBiT / TBL1-LgBiT) (Mus musculus)
Construct: expressed in transfected cells; crude lysate used as a cell-free assay
Sequence (Q9QXE7 166-527): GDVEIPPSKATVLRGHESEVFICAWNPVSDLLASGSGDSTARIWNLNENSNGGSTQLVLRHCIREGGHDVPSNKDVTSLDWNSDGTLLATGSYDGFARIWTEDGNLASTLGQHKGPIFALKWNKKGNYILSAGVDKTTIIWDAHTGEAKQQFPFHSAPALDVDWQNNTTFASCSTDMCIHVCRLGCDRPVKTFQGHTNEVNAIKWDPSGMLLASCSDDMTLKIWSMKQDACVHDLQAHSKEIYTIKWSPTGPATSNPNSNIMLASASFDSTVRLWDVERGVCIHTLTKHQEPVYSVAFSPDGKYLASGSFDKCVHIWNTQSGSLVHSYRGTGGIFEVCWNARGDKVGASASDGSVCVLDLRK
Assay: MeCP2-TBL1 NanoLuc luciferase complementation assay (cell-free, extracts of transfected HEK293 cells)
Format: binding, human
Conditions: primary screen of the Asinex library, sheet "Sargen output Asinex library", one well per compound, Batch Ref. 1
Please provide measured Inhibition percent for the entries that follow.
State just the number; it will be interpreted in %.

// field: Inhibition percent; key: Cc1nc2c(c(Nc3ccccn3)n1)CCN(S(=O)(=O)c1cccc(C(F)(F)F)c1)CC2 ; value = 6.69

// field: Inhibition percent; key: Cc1nnc(N2CCC(C3CC=CCN(Cc4ccc(F)cc4)C3=O)CC2)c2ccccc12 (centres unmarked) ; value = -0.22

// field: Inhibition percent; key: CC1(C)Oc2cc(OCCCNS(C)(=O)=O)ccc2[C@@H]2O[C@H](CCc3ccc(F)cc3)CC[C@H]21 ; value = 5.43

// field: Inhibition percent; key: Cc1ccc(Oc2ncccc2C(=O)N2CCC(c3cccc(Cc4ccccc4)n3)CC2)cn1 ; value = 10.27

// field: Inhibition percent; key: O=C(O)c1cc(F)ccc1Oc1ccccc1 ; value = -1.72

// field: Inhibition percent; key: CN(Cc1cc(N(C)C)nc(C2CCCCN2)n1)C(=O)c1ccccc1-c1ccccc1 (centres unmarked) ; value = -3.75

// field: Inhibition percent; key: C[C@]12C[C@@H](Cc3ccccc3)N(C(=O)c3cccc(CN4CCCC4=O)c3)[C@H]1CCCC(=O)N2 ; value = -1.59

// field: Inhibition percent; key: COc1cccc(Nc2ncccc2C(=O)N2CCOCC(Cc3nccn4cccc34)C2)c1 (centres unmarked) ; value = -5.94

###

target: MeCP2-TBL1 interaction (MeCP2-SmBiT / TBL1-LgBiT) (Mus musculus); construct: expressed in transfected cells; crude lysate used as a cell-free assay; assay: MeCP2-TBL1 NanoLuc luciferase complementation assay (cell-free, extracts of transfected HEK293 cells); type: binding, human; details: primary screen of Asinex library, single well per compound
Please provide measured Inhibition percent for the entries that follow.
// keep it numeric: no unit symbol after the value

// field: Inhibition percent; key: C[C@]12C[C@@H]3N[C@H]1CCCC[C@H]2N(C(=O)COc1ccc(F)cc1F)[C@H]3Cc1ccccc1 ; value = 1.00

// field: Inhibition percent; key: Cc1ccc2c(c1)OC1(CCN(Cc3ccc(Cl)cn3)CC1)[C@H]1CCCO[C@H]21 ; value = 0.92

// field: Inhibition percent; key: Cc1cc(C(=O)N2CCC(Cc3cccc4cccnc34)CC2)nc(C2(C)CCN(C)CC2)n1 ; value = -3.40

// field: Inhibition percent; key: Cc1ccc(C2(C(=O)N3CCC4(CC3)CC(Oc3ccccc3)CO4)CCOCC2)cc1 (stereo not shown) ; value = 1.12

// field: Inhibition percent; key: CCN(CC)S(=O)(=O)N1CCC2(C/C=C/Cc3ccccc3OCC(=O)NC2)CC1 ; value = 1.72

// field: Inhibition percent; key: O=C1OC2(CCCN(Cc3ccccc3OCc3ccccn3)CC2)CN1c1ccc(F)cc1 (stereo not shown) ; value = 1.61

// field: Inhibition percent; key: Cc1cc(C)n(-c2cccc(C(=O)N3CCCC(c4cncc(Oc5ccccc5)n4)C3)c2)n1 (stereo not shown) ; value = -1.24

// field: Inhibition percent; key: CC1(C)Oc2ccc(OCc3ccccc3)cc2[C@@H]2O[C@H](CC(=O)O)CC[C@H]21 ; value = 0.20

// field: Inhibition percent; key: CN(C)c1ccccc1C(=O)N(C)[C@H]1CC[C@@]2(CCO)C[C@H](c3ccccc3)C[C@](C)(O2)[C@@H]1O ; value = 1.99

// field: Inhibition percent; key: Cn1nc(C(F)(F)F)cc1C(=O)NCC[C@@H]1C[C@@H](S(=O)(=O)c2ccccc2)CCO1 ; value = 0.85

// field: Inhibition percent; key: O=C(c1cccc(Nc2ncccn2)c1)N1CCC2(CC1)COC(Cc1cccc(F)c1)C2 (stereo not shown) ; value = 9.41

// field: Inhibition percent; key: COCC(=O)N1CCC(C)(C(=O)N2CCCC2c2ccnc(-c3cccc(Cl)c3)n2)CC1 (stereo not shown) ; value = 0.44

// field: Inhibition percent; key: CN1CCC(c2c(C(=O)NCCS(=O)(=O)NC3CCCCC3)sc3ccccc23)C1 (stereo not shown) ; value = -0.05

// field: Inhibition percent; key: CN1C(=O)C2(CCN(C(=O)c3cccc(Nc4ncccn4)c3)CC2)CC1Cc1ccc(F)cc1 (stereo not shown) ; value = 8.79

// field: Inhibition percent; key: CC1(C)Oc2ccc(Cl)cc2[C@H]2OCC3(CCN(C(=O)CNC(=O)c4ccccc4)CC3)C[C@@H]21 ; value = -2.33

// field: Inhibition percent; key: COc1cccc2c1OC(C)(C)[C@H]1CC3(CCN(C(=O)CCCN4C(=O)CNC4=O)CC3)CO[C@H]21 ; value = -4.47

###

biological target: MeCP2-TBL1 interaction (MeCP2-SmBiT / TBL1-LgBiT) (Mus musculus, UniProt Q9QXE7); construct: expressed in transfected cells; crude lysate used as a cell-free assay; experiment: MeCP2-TBL1 NanoLuc luciferase complementation assay (cell-free, extracts of transfected HEK293 cells);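 note: each compound tested at 20 µM final concentration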; type: binding, human; conditions: primary screen of the Asinex library, sheet "Sargen output Asinex library", one well per compound, Batch Ref. 1
Please provide measured Inhibition percent for the entries that follow.
State just the number; it will be interpreted in %.

// field: Inhibition percent; key: COc1ccccc1Cc1cc(C(=O)N2CCCC2c2cncc(-c3nc(C)c[nH]3)n2)ccn1 (centres unmarked) ; value = 0.17

// field: Inhibition percent; key: CN(C)[C@@H]1C[C@@H](C(N)=O)N(CC(=O)Nc2ccc(Oc3ccccc3)cc2)[C@H]1c1ccccc1 ; value = 3.84

// field: Inhibition percent; key: O=C(c1ccccc1OCCN1CCOCC1)N1CCCC(Cc2cccc3cccnc23)CC1 (centres unmarked) ; value = 2.11

// field: Inhibition percent; key: O=C(Cn1ncc2ccccc2c1=O)N1CCCC(c2ncc(Cc3ccc(Cl)cc3)o2)C1 (centres unmarked) ; value = 0.79

// field: Inhibition percent; key: COc1ccccc1Cc1cnc(C2CCCCN2C(=O)Cn2ncc3ccccc3c2=O)o1 (centres unmarked) ; value = 1.49

// field: Inhibition percent; key: CNC(=O)c1sc2nc(C3CCCCN3C(=O)CCCNc3ncccn3)ccc2c1N (centres unmarked) ; value = -2.07

// field: Inhibition percent; key: COc1cccc(Cc2cnc(C3CCCCN3C(=O)c3cccnc3-c3cncs3)o2)c1 (centres unmarked) ; value = 1.71

// field: Inhibition percent; key: COc1ccc(CCC(=O)N2CCCC(c3cncc(-c4cccc(OC)c4)n3)C2)cc1 (centres unmarked) ; value = 11.34
